Values were extracted from ChEMBL document CHEMBL1145247.

target: UniProt P61431; test: Inhibitory concentration against MurB enzyme in Staphylococcus aureus
Listing of entries alongside the reported pIC50.
// field semantics: pIC50 = negative decimal log of concentration (mol/L)

Here are 3 molecules together with their reported answers.
O=C1C(CCSCc2ccccc2)C(=O)N(c2ccc(Cl)cc2)N1c1ccc(Cl)cc1 | 5.29
O=C1C(CCCCCc2ccccc2)C(=O)N(c2ccc(Cl)cc2)N1c1ccc(Cl)cc1 | 4.49
O=C1C(CCOCc2ccccc2)C(=O)N(c2ccc(Cl)cc2)N1c1ccc(Cl)cc1 | 4.96

API: the following record is the query input.
Item: `O=C(CCCC1C(=O)N(c2ccc(Cl)cc2)N(c2ccc(Cl)cc2)C1=O)c1ccc(F)cc1` | System: UniProt P61431 | pIC50: 4.96

* * *

Observed IC50 values for UDP-N-acetylglucosamine 1-carboxyvinyltransferase (Escherichia coli K-12) are listed in what follows.
All answers are understood in µM, so give the number only.

Item: `O=C1C(CCCCCc2ccccc2)C(=O)N(c2ccc(Cl)cc2)N1c1ccc(Cl)cc1` | System: UDP-N-acetylglucosamine 1-carboxyvinyltransferase (Escherichia coli K-12) | IC50: 42.3

Item: `O=C1C(CCCCCCc2ccccc2)C(=O)N(c2ccc(Cl)cc2)N1c1ccc(Cl)cc1` | System: UDP-N-acetylglucosamine 1-carboxyvinyltransferase (Escherichia coli K-12) | IC50: 34.9

Item: `O=C1N(c2ccc(Cl)cc2)N(c2ccc(Cl)cc2)C(=O)C1(CCCCCCc1ccccc1)CCCCCCc1ccccc1` | System: UDP-N-acetylglucosamine 1-carboxyvinyltransferase (Escherichia coli K-12) | IC50: 9.9

Item: `O=C(CC1(CC(=O)c2ccc(F)cc2F)C(=O)N(c2ccc(Cl)cc2)N(c2ccc(Cl)cc2)C1=O)c1ccc(F)cc1F` | System: UDP-N-acetylglucosamine 1-carboxyvinyltransferase (Escherichia coli K-12) | IC50: 9.6

* * *

test: Minimum inhibitory concentration against cell wall biosynthesis of methicillin-susceptible Coagulase negative staphylococcus GC 646 (MSCNS); type: functional
Listing of entries alongside the reported MIC.

CC1(CCOCc2ccccc2)C(=O)N(c2ccc(Cl)cc2)N(c2ccc(Cl)cc2)C1=O | > 200 µM

Lookup result for `O=C(CCCC1C(=O)N(c2ccc(Cl)cc2)N(c2ccc(Cl)cc2)C1=O)c1ccc(F)cc1` ; measured MIC: 100 µM

Lookup result for `Cc1c(OCC(=O)c2ccc(F)cc2F)n(-c2ccc(Cl)cc2)n(-c2ccc(Cl)cc2)c1=O` ; measured MIC: > 200 µM

Lookup result for `O=C1C(CCc2ccccc2)C(=O)N(c2ccc(Cl)cc2)N1c1ccc(Cl)cc1` ; measured MIC: 200 µM

Lookup result for `O=C(CC1C(=O)N(c2ccc(Cl)cc2)N(c2ccc(Cl)cc2)C1=O)c1ccc(F)cc1` ; measured MIC: > 200 µM

Lookup result for `O=C1C(CCCc2ccccc2)C(=O)N(c2ccc(Cl)cc2)N1c1ccc(Cl)cc1` ; measured MIC: > 200 µM

Lookup result for `CCN(CCC1C(=O)N(c2ccc(Cl)cc2)N(c2ccc(Cl)cc2)C1=O)Cc1ccccc1` ; measured MIC: > 200 µM

Lookup result for `O=C1C(CCCCc2ccccc2)C(=O)N(c2ccc(Cl)cc2)N1c1ccc(Cl)cc1` ; measured MIC: 200 µM

Lookup result for `N#Cc1ccccc1-c1ccc(CC2C(=O)N(c3ccc(Cl)cc3)N(c3ccc(Cl)cc3)C2=O)cc1` ; measured MIC: 6.25 µM

* * *

Molecular target: UDP-N-acetylenolpyruvoylglucosamine reductase (Staphylococcus aureus, UniProt P61431)
Sequence (P61431 whole entry): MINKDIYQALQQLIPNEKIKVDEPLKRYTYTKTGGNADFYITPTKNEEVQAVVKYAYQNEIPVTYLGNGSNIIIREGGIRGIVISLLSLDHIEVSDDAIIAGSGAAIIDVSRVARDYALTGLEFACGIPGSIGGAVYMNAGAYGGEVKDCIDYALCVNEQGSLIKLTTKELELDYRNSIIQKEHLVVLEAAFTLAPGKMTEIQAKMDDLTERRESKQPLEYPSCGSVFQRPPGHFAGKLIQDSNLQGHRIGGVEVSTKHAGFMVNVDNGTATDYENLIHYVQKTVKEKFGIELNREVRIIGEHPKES
pIC50: −log10 of the molar value.
Please note: rule met applies when pIC50 is 5 or greater, and rule not met applies otherwise.

CC1(CCCCCCc2ccccc2)C(=O)N(c2ccc(Cl)cc2)N(c2ccc(Cl)cc2)C1=O | rule not met

Ask: Is it the case that `CC1(CC(=O)c2ccc(F)cc2F)C(=O)N(c2ccc(Cl)cc2)N(c2ccc(Cl)cc2)C1=O` has pIC50 reaching or exceeding 5?
Reply: rule not met

Ask: Is it the case that `O=C1C(CCCCc2ccccc2)C(=O)N(c2ccc(Cl)cc2)N1c1ccc(Cl)cc1` has pIC50 reaching or exceeding 5?
Reply: rule met

Ask: Is it the case that `O=C(CC1C(=O)N(c2ccc(Cl)cc2)N(c2ccc(Cl)cc2)C1=O)c1ccc(F)cc1` has pIC50 reaching or exceeding 5?
Reply: rule met

* * *

Listing of entries alongside the reported MIC.
assay: Minimum inhibitory concentration against cell wall biosynthesis of methicillin-susceptible Coagulase negative staphylococcus GC 646 (MSCNS); format: functional
All answers are understood in µM, so give the number only.

Here are 2 compounds together with their reported answers.
O=C1C(Cc2cc(C(F)(F)F)cc(C(F)(F)F)c2)C(=O)N(c2ccc(Cl)cc2)N1c1ccc(Cl)cc1 | 50
CCCCCCCC1C(=O)N(c2ccc(Cl)cc2)N(c2ccc(Cl)cc2)C1=O | 200

Lookup result for `COc1cccc(CC2C(=O)N(c3ccc(Cl)cc3)N(c3ccc(Cl)cc3)C2=O)c1` ; measured MIC: 200

Lookup result for `O=C1C(CCOCc2ccccc2)C(=O)N(c2ccc(Cl)cc2)N1c1ccc(Cl)cc1` ; measured MIC: 200

Lookup result for `O=C(CC1(CC(=O)c2ccc(F)cc2F)C(=O)N(c2ccc(Cl)cc2)N(c2ccc(Cl)cc2)C1=O)c1ccc(F)cc1F` ; measured MIC: 25

Lookup result for `CCN(CC)CCC1C(=O)N(c2ccc(Cl)cc2)N(c2ccc(Cl)cc2)C1=O` ; measured MIC: 200

* * *

tested on: Streptococcus pneumoniae; assay: Minimum inhibitory concentration against cell wall biosynthesis of penicillin resistant Streptococcus pneumoniae GC 1894 (PRSP); type: functional
MIC under 50 µM gets Met, anything at or over 50 µM gets Not met.

CC1(CCOCc2ccccc2)C(=O)N(c2ccc(Cl)cc2)N(c2ccc(Cl)cc2)C1=O | Not met
O=C(CC1C(=O)N(c2ccc(Cl)cc2)N(c2ccc(Cl)cc2)C1=O)c1ccc(F)cc1 | Met
CCC(CC)CC1C(=O)N(c2ccc(Cl)cc2)N(c2ccc(Cl)cc2)C1=O | Met
CC1(CCCCCCc2ccccc2)C(=O)N(c2ccc(Cl)cc2)N(c2ccc(Cl)cc2)C1=O | Met
O=C1C(CCCc2ccccc2)C(=O)N(c2ccc(Cl)cc2)N1c1ccc(Cl)cc1 | Met
O=C1C(CCOCc2ccccc2)C(=O)N(c2ccc(Cl)cc2)N1c1ccc(Cl)cc1 | Met

Now look at this one.
Ask: # TODO verify MIC < 50 µM strictly for this compound: `O=C1C(Cc2ccccc2)C(=O)N(c2ccc(Cl)cc2)N1c1ccc(Cl)cc1`
Reply: Not met

* * *

experiment: Minimum inhibitory concentration against cell wall biosynthesis of methicillin-susceptible Coagulase negative staphylococcus GC 646 (MSCNS); assay type: functional
PROPERTY: MIC (µM)
All answers are understood in µM, so give the number only.

CCC(CC)CC1C(=O)N(c2ccc(Cl)cc2)N(c2ccc(Cl)cc2)C1=O | 200
O=C1C(CCCCCCc2ccccc2)C(=O)N(c2ccc(Cl)cc2)N1c1ccc(Cl)cc1 | 100
O=C1C(CCSCc2ccccc2)C(=O)N(c2ccc(Cl)cc2)N1c1ccc(Cl)cc1 | 50

API: the following record is the query input.
Lookup result for `O=C1N(c2ccc(Cl)cc2)N(c2ccc(Cl)cc2)C(=O)C1(CCOCc1ccccc1)CCOCc1ccccc1` ; measured MIC: 200

* * *

assay: Minimum inhibitory concentration against cell wall biosynthesis of methicillin-susceptible Coagulase negative staphylococcus GC 646 (MSCNS); assay type: functional
Listing of entries alongside the reported MIC.
All answers are understood in µM, so give the number only.

O=C1C(Cc2ccc(Cl)cc2Cl)C(=O)N(c2ccc(Cl)cc2)N1c1ccc(Cl)cc1 | 50

API: the following record is the query input.
Lookup result for `O=C(CCC1C(=O)N(c2ccc(Cl)cc2)N(c2ccc(Cl)cc2)C1=O)c1ccc(F)cc1` ; measured MIC: 200

* * *

Target protein (sequence): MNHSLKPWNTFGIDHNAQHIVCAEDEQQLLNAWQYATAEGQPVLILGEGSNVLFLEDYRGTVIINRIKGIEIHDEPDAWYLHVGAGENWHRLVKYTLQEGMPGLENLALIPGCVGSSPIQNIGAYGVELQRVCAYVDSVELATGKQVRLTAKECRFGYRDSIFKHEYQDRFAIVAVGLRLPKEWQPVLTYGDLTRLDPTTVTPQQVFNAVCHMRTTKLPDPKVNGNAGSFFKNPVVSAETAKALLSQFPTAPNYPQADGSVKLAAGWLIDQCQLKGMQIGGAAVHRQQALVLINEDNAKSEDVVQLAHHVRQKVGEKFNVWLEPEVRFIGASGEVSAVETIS
PROPERTY: pIC50
// field semantics: pIC50 = negative decimal log of concentration (mol/L)

Here are 5 compounds together with their reported answers.
O=C(CC1C(=O)N(c2ccc(Cl)cc2)N(c2ccc(Cl)cc2)C1=O)c1ccc(F)cc1 | 5.27
O=C1C(CCCCCCc2ccccc2)C(=O)N(c2ccc(Cl)cc2)N1c1ccc(Cl)cc1 | 5.05
O=C(CC1(CC(=O)c2ccc(F)cc2F)C(=O)N(c2ccc(Cl)cc2)N(c2ccc(Cl)cc2)C1=O)c1ccc(F)cc1F | 5.24
CCC(CC)CC1C(=O)N(c2ccc(Cl)cc2)N(c2ccc(Cl)cc2)C1=O | 4.30
O=C1N(c2ccc(Cl)cc2)N(c2ccc(Cl)cc2)C(=O)C1(CCOCc1ccccc1)CCOCc1ccccc1 | 5.14

Lookup result for `CC1(CCOCc2ccccc2)C(=O)N(c2ccc(Cl)cc2)N(c2ccc(Cl)cc2)C1=O` ; measured pIC50: 4.70

Lookup result for `O=C1C(CCOCc2ccccc2)C(=O)N(c2ccc(Cl)cc2)N1c1ccc(Cl)cc1` ; measured pIC50: 4.96

Lookup result for `O=C1C(CCSCc2ccccc2)C(=O)N(c2ccc(Cl)cc2)N1c1ccc(Cl)cc1` ; measured pIC50: 5.28

Lookup result for `O=C1C(CCCc2ccccc2)C(=O)N(c2ccc(Cl)cc2)N1c1ccc(Cl)cc1` ; measured pIC50: 5.00
